Entries and their protein stability index
# Test system: Saccharomyces cerevisiae;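 note: PSI is a weighted mean of sequencing reads over stability bins, variants kept only with over 10 reads, mCherry proximal and sfGFP distal, peptide attached via GGGS linker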
# Experiment notes: protein stability index of tFT-peptide fusion (C-terminal peptide) (PSI (0-1 scale)); higher = more stable (slower turnover)
# Experimental conditions: genetic background: das1 deletion; temperature: 30 C

Seq text: WLALSFFSFFFC
protein stability index: 0.588
//
Seq text: PSPPPPLPPHPS
protein stability index: 0.69
//
Seq text: LGVVLFCFRFCR
protein stability index: 0.391
//
Seq text: LLFFGFVGSCVF
protein stability index: 0.468
//
Seq text: ICFPLQIFRILV
protein stability index: 0.348
//
Seq text: WAIVVLVCFLRL
protein stability index: 0.277
//
Seq text: WLFRASSFNWVI
protein stability index: 0.689
//
Seq text: SCCGCGFGLLFC
protein stability index: 0.631
//
Seq text: APPFPPPPARSL
protein stability index: 0.675
//
Seq text: FICYDRILTVYY
protein stability index: 0.394
//
Seq text: ERFRLYFRPGIF
protein stability index: 0.653
//
Seq text: TVYMVIRVIVWG
protein stability index: 0.141
//
Seq text: LAEHIFLVLDHG
protein stability index: 0.428
//
Seq text: PRFCVYARFHNT
protein stability index: 0.649
